Target: human recombinant HDAC6 (Homo sapiens, UniProt Q9UBN7)
Construct: purchased BPS Bioscience 50006
Sequence (Q9UBN7 1-1215): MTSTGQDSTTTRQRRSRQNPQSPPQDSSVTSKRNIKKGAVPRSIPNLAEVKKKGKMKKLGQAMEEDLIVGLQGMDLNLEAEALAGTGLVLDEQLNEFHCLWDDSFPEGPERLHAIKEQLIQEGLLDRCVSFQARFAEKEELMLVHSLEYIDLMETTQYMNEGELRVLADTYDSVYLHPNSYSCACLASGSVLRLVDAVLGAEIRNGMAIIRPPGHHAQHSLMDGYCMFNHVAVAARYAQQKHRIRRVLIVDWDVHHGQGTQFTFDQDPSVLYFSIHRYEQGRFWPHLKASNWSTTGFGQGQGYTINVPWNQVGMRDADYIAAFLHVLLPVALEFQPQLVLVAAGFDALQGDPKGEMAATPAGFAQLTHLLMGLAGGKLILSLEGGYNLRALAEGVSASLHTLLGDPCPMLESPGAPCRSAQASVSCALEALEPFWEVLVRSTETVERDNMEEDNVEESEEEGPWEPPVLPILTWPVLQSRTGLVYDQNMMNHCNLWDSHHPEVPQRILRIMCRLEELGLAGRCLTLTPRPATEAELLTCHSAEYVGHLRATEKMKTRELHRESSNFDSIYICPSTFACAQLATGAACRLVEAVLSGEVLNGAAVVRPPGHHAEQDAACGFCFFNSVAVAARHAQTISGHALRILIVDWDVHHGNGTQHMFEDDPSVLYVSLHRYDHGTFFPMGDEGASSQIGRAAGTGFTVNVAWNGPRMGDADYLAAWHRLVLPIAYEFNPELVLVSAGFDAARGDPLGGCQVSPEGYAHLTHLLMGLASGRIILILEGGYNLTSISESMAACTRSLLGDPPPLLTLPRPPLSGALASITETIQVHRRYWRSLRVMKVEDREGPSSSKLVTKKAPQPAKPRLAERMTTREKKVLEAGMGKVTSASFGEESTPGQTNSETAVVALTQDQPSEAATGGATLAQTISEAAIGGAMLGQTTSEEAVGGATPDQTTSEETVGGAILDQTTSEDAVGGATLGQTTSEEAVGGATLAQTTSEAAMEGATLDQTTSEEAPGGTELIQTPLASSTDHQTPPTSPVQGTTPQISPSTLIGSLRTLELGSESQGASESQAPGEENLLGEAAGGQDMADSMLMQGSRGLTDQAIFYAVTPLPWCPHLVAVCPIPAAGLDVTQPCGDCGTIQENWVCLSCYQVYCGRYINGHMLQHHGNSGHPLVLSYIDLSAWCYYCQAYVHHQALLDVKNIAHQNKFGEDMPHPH
Test: ZMAL trypsin assay, HDAC6
Assay type: biochemical
property: HDAC6 inhibition (in words)

1. C=C[C@@H]1CC(=O)N[C@H](CCCC)C(=O)N[C@H](C)C(=O)N[C@H]([C@@H](C)CC)[C@@H](O[Si](C)(C)C(C)(C)C)CC(=O)O1: did not show inhibition
2. C=C[C@@H]1CC(=O)N[C@H](CCCC)C(=O)N[C@H](C)C(=O)N[C@H]([C@@H](C)CC)[C@@H](O)CC(=O)O1: did not show inhibition

---

Molecular target: human recombinant HDAC6 (Homo sapiens, UniProt Q9UBN7)
Construct: purchased BPS Bioscience 50006
Sequence (Q9UBN7 1-1215): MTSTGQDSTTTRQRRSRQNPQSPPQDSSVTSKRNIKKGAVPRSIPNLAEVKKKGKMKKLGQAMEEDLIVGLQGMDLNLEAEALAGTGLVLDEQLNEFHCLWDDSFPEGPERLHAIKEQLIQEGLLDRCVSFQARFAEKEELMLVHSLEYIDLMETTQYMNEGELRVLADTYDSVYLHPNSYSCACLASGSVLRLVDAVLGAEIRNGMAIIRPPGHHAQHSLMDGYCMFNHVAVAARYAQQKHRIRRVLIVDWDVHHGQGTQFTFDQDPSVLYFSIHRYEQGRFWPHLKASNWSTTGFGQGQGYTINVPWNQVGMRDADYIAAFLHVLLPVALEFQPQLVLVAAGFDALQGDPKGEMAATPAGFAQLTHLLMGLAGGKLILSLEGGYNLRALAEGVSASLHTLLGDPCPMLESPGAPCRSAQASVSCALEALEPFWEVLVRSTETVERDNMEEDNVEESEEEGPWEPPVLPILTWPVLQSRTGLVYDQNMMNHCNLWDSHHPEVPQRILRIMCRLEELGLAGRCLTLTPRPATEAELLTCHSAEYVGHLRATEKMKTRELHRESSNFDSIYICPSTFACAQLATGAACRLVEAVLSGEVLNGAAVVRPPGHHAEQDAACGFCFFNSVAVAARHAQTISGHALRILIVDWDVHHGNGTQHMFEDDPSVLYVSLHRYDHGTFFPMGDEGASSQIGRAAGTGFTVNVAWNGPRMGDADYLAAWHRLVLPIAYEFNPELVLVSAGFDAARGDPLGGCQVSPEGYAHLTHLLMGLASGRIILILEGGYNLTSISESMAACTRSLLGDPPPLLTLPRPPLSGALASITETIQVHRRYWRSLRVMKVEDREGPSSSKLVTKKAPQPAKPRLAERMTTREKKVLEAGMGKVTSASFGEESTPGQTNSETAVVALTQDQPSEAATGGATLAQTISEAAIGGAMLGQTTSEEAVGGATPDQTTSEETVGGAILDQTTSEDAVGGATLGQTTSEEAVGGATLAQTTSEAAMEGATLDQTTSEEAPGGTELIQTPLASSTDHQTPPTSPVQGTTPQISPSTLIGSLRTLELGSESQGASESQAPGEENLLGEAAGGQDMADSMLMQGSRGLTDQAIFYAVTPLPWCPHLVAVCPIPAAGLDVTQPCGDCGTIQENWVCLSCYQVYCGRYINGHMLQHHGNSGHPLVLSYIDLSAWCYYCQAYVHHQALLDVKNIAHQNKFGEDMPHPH
Experiment: ZMAL trypsin assay, HDAC6
Format: biochemical
Details: 10 μM, ZMAL trypsin assay
property: inhibition at 10 µM

Item: CCCC[C@H]1NC(=O)C[C@@H](/C=C/CCC(=O)NO)OC(=O)C[C@H](O)[C@@H]([C@@H](C)CC)NC(=O)[C@@H](C)NC1=O [compound 8] | inhibition at 10 µM: 39%

# inhibition at 10 µM (compound: CCCC[C@H]1NC(=O)C[C@@H](/C=C/CCSC(C)=O)OC(=O)C[C@H](O[Si](C)(C)C(C)(C)C)[C@@H]([C@@H](C)CC)NC(=O)[C@@H](C)NC1=O [compound 32] ) is < 5%

Note to self: inhibition at 10 µM recorded for C=C[C@@H]1CC(=O)N[C@H](CCCC)C(=O)N[C@H](C)C(=O)N[C@H]([C@@H](C)CC)[C@@H](O)CC(=O)O1 [compound 28] was < 5%

get_value(item= CCCC[C@H]1NC(=O)C[C@@H](/C=C/CCSC(C)=O)OC(=O)C[C@H](O)[C@@H]([C@@H](C)CC)NC(=O)[C@@H](C)NC1=O [compound 33] , readout=inhibition at 10 µM) returns 30%

The recorded inhibition at 10 µM for C=C[C@@H]1CC(=O)N[C@H](CCCC)C(=O)N[C@H](C)C(=O)N[C@H]([C@@H](C)CC)[C@@H](O[Si](C)(C)C(C)(C)C)CC(=O)O1 [compound 9] is < 5%

inhibition at 10 µM measured on CCCC[C@H]1NC(=O)C[C@@H](/C=C/CCC(=O)N(OC(=O)OC(C)(C)C)C(=O)OC(C)(C)C)OC(=O)C[C@H](O[Si](C)(C)C(C)(C)C)[C@@H]([C@@H](C)CC)NC(=O)[C@@H](C)NC1=O [compound 35] = < 5%
